Tested on: NCI-H1792
assay.info: relative viability (nuclei count vs DMSO), 5 days (fraction); higher = more cells survive
condition.info: first compound 0.01 µM
# reported relative viability; entries follow
assay.metric: relative viability

molecule: O=c1cc(N2CCOCC2)oc2c(-c3cccc4c3sc3ccccc34)cccc12 + CCNC(=O)c1noc(-c2cc(C(C)C)c(O)cc2O)c1-c1ccc(CN2CCOCC2)cc1 [Luminespib] (partner 0.01 µM)
measured.result: 0.502

molecule: O=c1cc(N2CCOCC2)oc2c(-c3cccc4c3sc3ccccc34)cccc12 + CC(=O)Nc1cccc(-n2c(=O)n(C3CC3)c(=O)c3c(Nc4ccc(I)cc4F)n(C)c(=O)c(C)c32)c1 [Trametinib] (partner 0.02 µM)
measured.result: 0.322

molecule: O=c1cc(N2CCOCC2)oc2c(-c3cccc4c3sc3ccccc34)cccc12 + N=C(N)NC(=N)NCCc1ccccc1 [Phenformin] (partner 250 µM)
measured.result: 0.26

molecule: O=c1cc(N2CCOCC2)oc2c(-c3cccc4c3sc3ccccc34)cccc12 + Nc1nc2[nH]cc(CCc3ccc(C(=O)N[C@@H](CCC(=O)O)C(=O)O)cc3)c2c(=O)[nH]1 [Pemetrexed] (partner 0.2 µM)
measured.result: 0.835

molecule: CCN(CC)CCCCNc1ncc2cc(-c3cc(OC)cc(OC)c3)c(NC(=O)NC(C)(C)C)nc2n1 + C[C@@H](Oc1cc(-c2cnn(C3CCNCC3)c2)cnc1N)c1c(Cl)ccc(F)c1Cl [Crizotinib] (partner 1 µM)
measured.result: 1.07

molecule: O=c1cc(N2CCOCC2)oc2c(-c3cccc4c3sc3ccccc34)cccc12 + CS(=O)(=O)N1CCN(Cc2cc3nc(-c4cccc5[nH]ncc45)nc(N4CCOCC4)c3s2)CC1 [Pictilisib] (partner 1 µM)
measured.result: 0.286

molecule: O=c1cc(N2CCOCC2)oc2c(-c3cccc4c3sc3ccccc34)cccc12 + NC(=O)Nc1cc(-c2cccc(F)c2)sc1C(=O)N[C@H]1CCCNC1 [AZD7762] (partner 0.2 µM)
measured.result: 0.75

molecule: O=c1cc(N2CCOCC2)oc2c(-c3cccc4c3sc3ccccc34)cccc12 + COc1cccc2cc(-c3nc([C@H]4CC[C@H](C(=O)O)CC4)n4ncnc(N)c34)[nH]c12 [OSI-027] (partner 0.5 µM)
measured.result: 0.717

molecule: O=c1cc(N2CCOCC2)oc2c(-c3cccc4c3sc3ccccc34)cccc12 + C[C@]1(O)C[C@@H](c2nc(-c3ccc4ccc(-c5ccccc5)nc4c3)c3c(N)nccn32)C1 [Linsitinib] (partner 1 µM)
measured.result: 0.514

molecule: CCN(CC)CCCCNc1ncc2cc(-c3cc(OC)cc(OC)c3)c(NC(=O)NC(C)(C)C)nc2n1 + CC1(C)CCC(c2ccc(Cl)cc2)=C(CN2CCN(c3ccc(C(=O)NS(=O)(=O)c4ccc(N[C@H](CCN5CCOCC5)CSc5ccccc5)c(S(=O)(=O)C(F)(F)F)c4)cc3)CC2)C1 [Navitoclax] (partner 0.5 µM)
measured.result: 0.688

molecule: CCN(CC)CCCCNc1ncc2cc(-c3cc(OC)cc(OC)c3)c(NC(=O)NC(C)(C)C)nc2n1 + Nc1nc2[nH]cc(CCc3ccc(C(=O)N[C@@H](CCC(=O)O)C(=O)O)cc3)c2c(=O)[nH]1 [Pemetrexed] (partner 0.2 µM)
measured.result: 1.17
